# assayed_system: adenosine A2a receptor (Homo sapiens (Human), UniProt P29274)
# Sequence (P29274 whole entry): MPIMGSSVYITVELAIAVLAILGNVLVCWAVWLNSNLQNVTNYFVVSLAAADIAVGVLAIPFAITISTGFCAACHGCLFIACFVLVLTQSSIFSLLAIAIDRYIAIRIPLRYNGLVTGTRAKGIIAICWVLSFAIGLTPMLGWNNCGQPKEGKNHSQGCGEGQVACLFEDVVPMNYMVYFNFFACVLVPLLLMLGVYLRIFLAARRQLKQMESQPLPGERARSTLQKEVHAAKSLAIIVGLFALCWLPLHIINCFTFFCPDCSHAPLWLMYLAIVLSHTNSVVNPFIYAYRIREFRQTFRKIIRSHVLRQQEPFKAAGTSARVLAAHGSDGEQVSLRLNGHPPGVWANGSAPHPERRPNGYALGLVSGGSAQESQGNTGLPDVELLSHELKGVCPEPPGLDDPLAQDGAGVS
# assay_overview: Indirect determination of adenosine agonism by gene expression (luciferase reporter), A2a cells
# condition_label: CHO cells stably transfected with adenosine A2a receptor, 50% of maximum stimulation
Where a name gives a salt, the structure may show the parent alone.
reported_metric: EC50 (nM)
Numbers only, in nM.

CNC(=O)c1cc(CSc2nc(N)c(C#N)c(-c3ccc(NC)cc3)c2C#N)ccn1 [Example 28]    1640

Each of the following entries comes with a recorded value; kindly state EC50 for each.
1. CNC(=O)c1cc(CSc2nc(NC[C@H](O)CO)c(C#N)c(-c3ccccc3)c2C#N)ccn1 [Example 83]
2. CNC(=O)c1cc(CSc2ncc(C#N)c(-c3ccc(OC)cc3)c2C#N)ccn1 [Example 31]
3. CCOc1ccc(-c2c(C#N)c(N)nc(SCc3ccnc(C(=O)NC)c3)c2C#N)cc1 [Example 26]
4. CCNC(=O)c1cccc(CSc2nc(N3CCCC3)c(C#N)c(-c3ccc(OCCO)cc3)c2C#N)c1 [Example 98]
5. CNC(=O)c1cc(CSc2nc(N)c(C#N)c(-c3ccc(OCCN)cc3)c2C#N)ccn1 [Example 54, trifluoroacetate]
6. CNC(=O)c1cc(CSc2nc(N3CC[C@@H](O)C3)c(C#N)c(-c3ccc4c(c3)OCCO4)c2C#N)ccn1 [Example 82]
7. CNC(=O)c1cc(CSc2nc(N)c(C#N)c(-c3ccc(OCC(C)(C)O)cc3)c2C#N)ccn1 [Example 7]
8. N#Cc1c(N)nc(SCc2cccc(C(=O)NCCN)c2)c(C#N)c1-c1ccccc1 [Example 101, hydrochloride]

[2180, 707, 65, 1540, 114, 1980, 460, 440]

Each of the following entries comes with a recorded value; kindly state EC50 for each.
1. CNC(=O)c1cc(CSc2nc(N3CC(O)C3)c(C#N)c(-c3ccccc3)c2C#N)ccn1 [Example 70]
2. CNC(=O)c1cc(CSc2nc(NCCO)c(C#N)c(-c3ccccn3)c2C#N)ccn1 [Example 88]
3. CNC(=O)c1cc(CSc2nc(NCCO)c(C#N)c(-c3ccc(OCCO)nc3)c2C#N)ccn1 [Example 78]
4. N#Cc1c(N)nc(OCc2ccnc(C(=O)NC3CC3)c2)c(C#N)c1-c1ccccc1 [Example 68]
5. N#Cc1c(N)nc(SCc2ccnc(C(=O)NC3CC3)c2)c(C#N)c1-c1ccccc1 [Example 13]

1: 272; 2: 1980; 3: 355; 4: 1740; 5: 108
